system: HOP-18; assay: NCI tumour cell line growth inhibition, 48 h
Calls of active or inactive are those of the source. Rule as the data show it: active = GI50 up to about 1.1 µM and inactive = higher.
Classes used: active, inactive

1) Cc1nn2c3c(nnc2c1C#N)C(=O)NN=C(N)S3 : inactive
2) Cc1cc([N+](=O)[O-])ccc1Sc1c2ccccc2nc2cc(Cl)ccc12 : inactive
3) CCC(=O)OC1CCn2c1nc1c2C(=O)C(C)=C(N2CC2)C1=O (centres undefined) : active
4) CN(C)CCC(/C=C/c1ccccc1)=N\Nc1ccc(Cl)cc1Cl : inactive
5) CC(C)N(O)C(=N)c1ccccc1 : active
6) Cc1n[nH]c(=S)n(C)c1=S : inactive
7) O=C(Nc1nnc(S)[nH]1)C(=O)C(c1cnc2ccc([N+](=O)[O-])cc2n1)[N+](=O)[O-] (centres undefined) : inactive
8) O=c1nc(NC(c2ccccc2)(c2ccccc2)c2ccccc2)ccn1CCNCCn1ccc(NC(c2ccccc2)(c2ccccc2)c2ccccc2)nc1=O : inactive
9) OC1OCC(COc2cc(Cl)c(Cl)cc2Cl)OC1O (centres undefined) : inactive
10) C1=C(c2ccccc2)CN(c2ccccc2)OC1 : inactive
11) COC(=O)C(C(=O)c1ccccc1)C(C(=O)C(=O)Nc1ccc(OC)cc1OC)C(=O)C(=O)c1ccc(C)cc1 (centres undefined) : inactive
12) COc1cc([C@@H]2c3cc4c(cc3[C@@H](NC(=O)c3ccc([N+](=O)[O-])cc3)C3COC(=O)[C@@H]32)OCO4)cc(OC)c1O (some centres undefined) : inactive
13) O=[N+]([O-])c1cccc(C2=NN(c3ccccc3)C[N+](c3ccc(Br)cc3)=N2)c1 : inactive
14) CN(C)c1n/c(=N/Cc2ccco2)ss1 : inactive
15) FC(F)(F)c1ccc(C2SCc3nc4ccccc4n32)cc1 (centres undefined) : inactive
16) O=C1/C(=C/c2ccccc2Cl)COc2ccccc21 : inactive
17) CCCC/C=C/C=C/C=C/CCCCCCCC(=O)OCC(COC(=O)CCCCCCC/C=C/C1C=CC(CCCC)C(C(=O)O)C1C(=O)O)OC(=O)CCCCCCC/C=C/C=C/C=C/CCCC.OCCNCO (centres undefined) : inactive
18) C=C1COC(O)(C2OCOC(C3CC(=O)NC(=O)C3)C2O)C1C (centres undefined) : active
19) COc1ccc(/C=N/N=C(\N)NO)cc1F : inactive
20) N#C/C(c1nc2ccccc2[nH]1)=c1\s/c(=C/c2ccc(Cl)cc2)c(=O)n1-c1ccccc1 : inactive
21) Cc1nn2c(nc1=O)sc1ccc3ccccc3c12 : inactive
22) O=C(CCc1nnc(S)[nH]1)Nc1ccccc1Cl : inactive
23) O=P(c1ccccc1)(c1ccccc1)C1CC=C2CCCCCC2C1 (centres undefined) : inactive
24) COc1ccc(OCC(=O)O)c2c1CCC(C(C)C)C2=O (centres undefined) : inactive
25) CC1=C(/C=C/C(C)=C/C=C/C(C)=C/C=C/C=C(C)/C=C/C=C(C)/C=C/C2=C(C)C(=O)C(O)CC2(C)C)C(C)(C)CC(O)C1=O (centres undefined) : inactive
26) Cc1nc2ccccc2c(=O)[nH]1 : inactive
27) O=C1c2ccccc2C(=O)C1C(c1ccc([N+](=O)[O-])cc1)C1C(=O)c2ccccc2C1=O : inactive
28) FC(F)(F)c1nc(-c2ccccc2Cl)[nH]c1C(F)(F)F : active
29) CCOc1ccc(/N=C/c2ccnc3ccccc23)cc1 : inactive
